Data origin, for the record: patent US20240279218A1

study_system: h-GABA-A α5β3γ2 (Homo sapiens (Human), UniProt P18507+P31644)
test_summary: [3H]flumazenil competition binding assay, membranes of HEK293 cells expressing human GABAA receptors
applied_conditions: displacement of [3H]flumazenil 0.5 nM, HEK293 cells expressing human receptors, mean of two determinations; read-out: Ki h-GABA-A α5β3γ2
parameter: log10 of Ki (log10 of the value in nM)
// units: nM (pre-log); metric: Ki; scale: log10

Record log10 of Ki per entry; entries follow.
1. Cc1ccc(-c2noc(C)c2COc2ccc(C(=O)N3CCC(F)(F)C3)nn2)cn1
2. Cc1ccc(-c2noc(C)c2COc2ccc(C(=O)NCC3(O)COC3)nn2)cn1
3. CCC[C@@H](CO)NC(=O)c1ccc(OCc2c(-c3ccc(C)nc3)noc2C)nn1
4. Cc1ccc(-c2noc(C)c2COc2ccc(C(=O)NC3CN(C(C)C)C3)nn2)cn1
5. Cc1ccc(-c2noc(C)c2COc2cnc(C(=O)N[C@@H]3CCCOC3)cn2)cn1
6. Cc1ccc(-c2noc(C)c2COc2cc3c(cn2)C(=O)N(C2CCC(F)(F)CC2)C3)cn1

Ans.
[1.50, 1.03, 1.41, 0.69, 1.79, 0.86]

Record log10 of Ki per entry; entries follow.
1. Cc1ccc(-c2noc(C)c2COc2ccc(C(=O)NCCC#N)nn2)cn1
2. CO[C@H]1C[C@@H](NC(=O)c2ccc(OCc3c(-c4ccc(C)nc4)noc3C)nn2)C1

Ans.
1. 1.06
2. 1.06

###

study_system: h-GABA-A α5β3γ2 (Homo sapiens (Human), UniProt P18507+P31644)
test_summary: [3H]flumazenil competition binding assay, membranes of HEK293 cells expressing human GABAA receptors
applied_conditions: displacement of [3H]flumazenil 0.5 nM, HEK293 cells expressing human receptors, mean of two determinations; read-out: Ki h-GABA-A α5β3γ2
pKi: −log10 of the molar value.
Label 0.0 if pKi falls below 8; label 1.0 in every other case.

Worked set:
O=C(NC1CC2(COC2)C1)c1ccc(OCc2c(-c3ccc(Cl)nc3)noc2C2CC2)nn1; 0.0
Cc1ccc(-c2noc(C)c2COc2ccc(C(=O)N[C@H]3CC[C@H](O)CC3)nn2)cn1; 1.0

Qu. Reported pKi reaches at least 8 for `Cc1ccc(-c2noc(C)c2COc2nnc(C(=O)NC3CCOCC3)cc2C)cn1` ?
Ans. 1.0

Qu. Consider next the molecule `CCc1onc(-c2ccc(C)nc2)c1COc1ccc(C(=O)NC2CCS(=O)(=O)CC2)cn1` in the same way.
Ans. 0.0

###

study_system: h-GABA-A α5β3γ2 (Homo sapiens (Human), UniProt P18507+P31644)
test_summary: [3H]flumazenil competition binding assay, membranes of HEK293 cells expressing human GABAA receptors
applied_conditions: displacement of [3H]flumazenil 0.5 nM, HEK293 cells expressing human receptors, mean of two determinations; read-out: Ki h-GABA-A α5β3γ2
parameter: Ki
Write down the value, and be sure its unit follows.

Before answering, review these 7 worked examples.
CNC(=O)c1ccc(OCc2c(-c3ccc(C)nc3)noc2C)nc1F [Example 136]; 14.8 nM
CCC[C@@H](CO)NC(=O)c1cnc(OCc2c(-c3ccc(C)nc3)noc2C)cn1 [Example 14]; 74.5 nM
Cc1ccc(-c2noc(CF)c2COc2ccc(C(=O)NC3CCOCC3)nn2)nn1 [Example 192]; 3 nM
Cc1ccc(-c2noc(C)c2COc2ccc(C(=O)NC3CCOCC3)nn2)cn1 [Example 8]; 8.7 nM
Cc1ccc(-c2noc(C)c2COc2cnc(C(=O)N3CC4(C3)CS(=O)(=O)C4)cn2)cn1 [Example 113]; 33.8 nM
Cc1ccc(-c2noc(C)c2COc2ccc(C(=O)N3CC(F)(F)C3)nn2)cn1 [Example 47]; 13 nM
Cc1ccc(-c2noc(C)c2COc2cnc(C(=O)N[C@H]3CC[C@](C)(O)CC3)cn2)cn1 [Example 105]; 22.7 nM

Qu. Item Cc1ccc(-c2noc(C)c2COc2ccc(C(=O)NC(C)(C)C(F)(F)F)nn2)cn1 [Example 64] with h-GABA-A α5β3γ2 (Homo sapiens (Human), UniProt P18507+P31644) - Ki?
Ans. 17.6 nM
